subject-of-test: HLA-B*27:05
experiment-notes: IEDB peptide-MHC binding, purified MHC/direct/fluorescence; filed as Kd, often an IC50 or EC50 that approximates it; bounds were set here for any values at or beyond the usual limits of such assays
assay-context: source organism: Escherichia coli O157:H7
pKd: −log10 of the molar value.
Here, each record is paired with measured pKd data.

The examples below pair each entry with its known result.
[[record]]
sequence_data = "YLFQWNDNV"
test_value = "≤ 4.70"

[[record]]
sequence_data = "GITGGHIPK"
test_value = "≤ 4.70"


Shifting focus to the sequence that follows.
For `EQRLIDICV` the sequence record lists pKd as ≤ 4.70
